STUDY SYSTEM: the molecule itself
ASSAY OVERVIEW: negative-stain TEM; 0.02 mg/ml purified protein on glow-discharged carbon-coated copper grids, 2% uranyl acetate; single-point mutants taken directly after TEV cleavage of the 8×His tag
PROPERTY LABEL: binding result

hNINJ1∆1–36 (domain or fragment, human, UniProt Q92982 37-152, looked up, ninjurin-1 (NINJ1), human, UniProt Q92982, printed as hNINJ1∆1–36 (residues 1–36 removed); probably as the wild type (8×His and TEV site, cleaved); also called truncated hNINJ1; source: E. coli Rosetta2 (DE3), purified) NVNHYASKKSAAESMLDIALLMANASQLKAVVEQGPSFAFYVPLVVLISISLVLQIGVGVLLIFLVKYDLNNPAKHAKLDFLNNLATGLVFIIVVVNIFITAFGVQKPLMDMAPQQ; binds
hNINJ1 I84F (natural protein, human, UniProt Q92982 1-152, looked up, ninjurin-1 (NINJ1), human, UniProt Q92982, residues 1–152, point mutant; source: E. coli Rosetta2 (DE3), purified (DDM, Ni-NTA, TEV cleavage); not shown: 8×His, N-terminal, cleaved) MDSGTEEYELNGGLPPGTPGSPDASPARWGWRHGPINVNHYASKKSAAESMLDIALLMANASQLKAVVEQGPSFAFYVPLVVLFSISLVLQIGVGVLLIFLVKYDLNNPAKHAKLDFLNNLATGLVFIIVVVNIFITAFGVQKPLMDMAPQQ; binds
hNINJ1 K45Q (natural protein, human, UniProt Q92982 1-152, looked up, ninjurin-1 (NINJ1), human, UniProt Q92982, residues 1–152, point mutant; source: E. coli Rosetta2 (DE3), purified (DDM, Ni-NTA, TEV cleavage); not shown: 8×His, N-terminal, cleaved) MDSGTEEYELNGGLPPGTPGSPDASPARWGWRHGPINVNHYASKQSAAESMLDIALLMANASQLKAVVEQGPSFAFYVPLVVLISISLVLQIGVGVLLIFLVKYDLNNPAKHAKLDFLNNLATGLVFIIVVVNIFITAFGVQKPLMDMAPQQ; binds
